Experiment: Binding affinity to human PCFT expressed in Chinese hamster R2/PCFT4 cells assessed as antiproliferative activity measured as reduction in cell growth after 96 hrs by Cell-Titer Blue assay
Quick reference for IC50 among some compounds
# output: number + unit

# INPUT SMILES, RECORDED ENDPOINT, MEASURED VALUE
data = [
    ("Nc1nc2[nH]c(CCCc3ccc(C(=O)N[C@@H](CCC(=O)O)C(=O)O)c(F)c3)cc2c(=O)[nH]1", "IC50", "3.8 nM"),
    ("Nc1nc2[nH]c(CCCCc3csc(C(=O)N[C@@H](CCC(=O)O)C(=O)O)c3F)cc2c(=O)[nH]1", "IC50", "6 nM"),
    ("Nc1nc2[nH]c(CCCc3csc(C(=O)N[C@@H](CCC(=O)O)C(=O)O)c3F)cc2c(=O)[nH]1", "IC50", "1.5 nM"),
]

Item: Nc1nc2[nH]c(CCCCc3ccc(C(=O)N[C@@H](CCC(=O)O)C(=O)O)cc3F)cc2c(=O)[nH]1 | IC50: 207 nM
